# TARGET: HIV-1 Env of MB201 (HIV-1)
# PROCEDURE TEXT: cell-based or functional assay
ENDPOINT LABEL: neutralization IC50

Worked cases, answers included:
{"columns": ["BINDER", "TEST RESULT"],
 "data": [
  ["CAP256-VRC26.08 (antibody, V domains shown) VH: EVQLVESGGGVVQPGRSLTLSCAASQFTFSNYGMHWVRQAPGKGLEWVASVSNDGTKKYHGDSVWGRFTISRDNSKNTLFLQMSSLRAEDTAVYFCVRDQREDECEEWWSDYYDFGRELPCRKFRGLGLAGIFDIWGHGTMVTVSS VL: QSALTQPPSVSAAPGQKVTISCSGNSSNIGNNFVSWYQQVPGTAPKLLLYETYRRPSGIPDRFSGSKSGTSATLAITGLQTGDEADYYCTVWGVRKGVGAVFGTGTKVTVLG", "> 50 µg/mL"],
  ["CAP256-VRC26.01 (antibody, V domains shown) VH: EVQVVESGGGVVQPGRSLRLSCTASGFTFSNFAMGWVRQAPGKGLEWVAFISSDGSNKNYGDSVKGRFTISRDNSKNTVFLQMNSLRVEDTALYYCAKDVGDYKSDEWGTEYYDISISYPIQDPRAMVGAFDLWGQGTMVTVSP VL: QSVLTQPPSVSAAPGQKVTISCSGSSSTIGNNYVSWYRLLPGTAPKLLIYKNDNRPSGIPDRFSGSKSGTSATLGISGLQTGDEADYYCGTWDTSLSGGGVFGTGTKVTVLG", "> 50 µg/mL"]
]}

Data request: Fill in the blank: the reported neutralization IC50 of CAP256-VRC26.06 (antibody, V domains shown) VH: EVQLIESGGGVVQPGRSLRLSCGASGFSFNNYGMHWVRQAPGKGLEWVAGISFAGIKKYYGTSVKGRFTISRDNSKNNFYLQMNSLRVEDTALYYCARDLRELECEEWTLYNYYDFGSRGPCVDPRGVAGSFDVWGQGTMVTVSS VL: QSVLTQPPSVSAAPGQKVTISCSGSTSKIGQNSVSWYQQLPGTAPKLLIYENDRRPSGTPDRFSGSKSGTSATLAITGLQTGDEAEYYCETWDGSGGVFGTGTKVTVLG is ____.
Data returned: > 50 µg/mL
